assayed.target: α-synuclein (UniProt P37840 1-140); also: test concentration or dose not given here
assay.info: cell-based or functional assay
Non-standard residues stand in square brackets, D forms with d.
property.measured: % increase in Lag phase (%)

Ac-[dH][dH][dT][dL][dV][dA]-NH2 (SMILES CC(=O)N[C@H](Cc1c[nH]cn1)C(=O)N[C@H](Cc1c[nH]cn1)C(=O)N[C@@H](C(=O)N[C@H](CC(C)C)C(=O)N[C@@H](C(=O)N[C@H](C)C(N)=O)C(C)C)[C@H](C)O) [ZP-0181]; 29.4
H-[dQ][dY][dS][dV][dL][dV]-NH2 (SMILES CC(C)C[C@@H](NC(=O)[C@H](NC(=O)[C@@H](CO)NC(=O)[C@@H](Cc1ccc(O)cc1)NC(=O)[C@H](N)CCC(N)=O)C(C)C)C(=O)N[C@@H](C(N)=O)C(C)C) [ZP-0229]; 33.5
Ac-[dH][dH][dV][dE][dV][dA]-NH2 (SMILES CC(=O)N[C@H](Cc1c[nH]cn1)C(=O)N[C@H](Cc1c[nH]cn1)C(=O)N[C@@H](C(=O)N[C@H](CCC(=O)O)C(=O)N[C@@H](C(=O)N[C@H](C)C(N)=O)C(C)C)C(C)C) [ZP-0162]; 33.4

P = Ac-[dQ][dP][dS][dV][dL][dI]-NH2 (SMILES CC[C@@H](C)[C@@H](NC(=O)[C@@H](CC(C)C)NC(=O)[C@H](NC(=O)[C@@H](CO)NC(=O)[C@H]1CCCN1C(=O)[C@@H](CCC(N)=O)NC(C)=O)C(C)C)C(N)=O) [ZP-0207]
Q = Ac-[dQ][dY][dK][dV][dL][dI]-NH2 (SMILES CC[C@@H](C)[C@@H](NC(=O)[C@@H](CC(C)C)NC(=O)[C@H](NC(=O)[C@@H](CCCCN)NC(=O)[C@@H](Cc1ccc(O)cc1)NC(=O)[C@@H](CCC(N)=O)NC(C)=O)C(C)C)C(N)=O) [ZP-0202]
R = Ac-[dR][dY][dS][dV][dL][dI]-NH2 (SMILES CC[C@@H](C)[C@@H](NC(=O)[C@@H](CC(C)C)NC(=O)[C@H](NC(=O)[C@@H](CO)NC(=O)[C@@H](Cc1ccc(O)cc1)NC(=O)[C@@H](CCCNC(=N)N)NC(C)=O)C(C)C)C(N)=O) [ZP-0212]
**Query** Ascending by % increase in Lag phase, please. Would you mind listing the labels in the order requested?
**Result** Q, R, P
(Q: -28.8%, R: -14.4%, P: 29.7%)
